assay-info: Absorption maximum in water
Type: physicochemical
From the text: The absorption maxima and the results of the tests (B) to (D) are reported in Table 6 for the dyes of the invention and the comparative values for previously known disazo dyes in Table 7.
readout-name: HD max in water (nm)

compound	HD max in water, nm
COc1cc(N=Nc2cccc(S(=O)(=O)O)c2)c(C)cc1N=Nc1c(S(=O)(=O)O)cc2ccc(NCCS(=O)(=O)O)cc2c1O [Compound 1]	569
COc1cc(N=Nc2c(S(=O)(=O)O)cc3ccc(Nc4ccc(C(=O)O)cc4)cc3c2O)c(OC)cc1N=Nc1ccc(C(=O)O)cc1 [Compound 14, reference compound]	584
COc1cc(N=Nc2cccc(C(=O)O)c2)c(NC(C)=O)cc1N=Nc1c(S(=O)(=O)O)cc2ccc(N)cc2c1O [Compound 11, reference compound]	557
COc1cc(N=Nc2cccc(C(=O)O)c2)c(C)cc1N=Nc1c(S(=O)(=O)O)cc2ccc(N)cc2c1O [Compound 15, reference compound]	557
COc1cc(N=Nc2ccc3c(S(=O)(=O)O)cc(S(=O)(=O)O)cc3c2)c(C)cc1N=Nc1c(S(=O)(=O)O)cc2ccc(NCCS(=O)(=O)O)cc2c1O [Compound 6]	575
COc1cc(N=Nc2cc(S(=O)(=O)O)c3cccc(S(=O)(=O)O)c3c2)c(C)cc1N=Nc1c(S(=O)(=O)O)cc2ccc(NCCS(=O)(=O)O)cc2c1O [Compound 4]	584
COc1cc(N=Nc2cccc(C(=O)O)c2)c(NC(C)=O)cc1N=Nc1c(S(=O)(=O)O)cc2ccc(NCCC(=O)O)cc2c1O [Compound 13, reference compound]	488
COc1cc(N=Nc2cccc(C(=O)O)c2)c(NC(C)=O)cc1N=Nc1c(S(=O)(=O)O)cc2ccc(Nc3ccc(C(=O)O)cc3)cc2c1O [Compound 12, reference compound]	498
Cc1cc(N=Nc2c(S(=O)(=O)O)cc3ccc(Nc4cccc(S(=O)(=O)O)c4)cc3c2O)ccc1N=Nc1cc(S(=O)(=O)O)c2cccc(S(=O)(=O)O)c2c1 [Compound 10, reference compound]	559
Cc1cc(N=Nc2c(S(=O)(=O)O)cc3ccc(NCCS(=O)(=O)O)cc3c2O)c(OCCO)cc1N=Nc1cc(S(=O)(=O)O)c2cccc(S(=O)(=O)O)c2c1 [Compound 5]	583

====

assay-info: Dye solubility in deionised water
Type: physicochemical
test-settings: deionised water, stirred 1 hour at 50° C., cooled to 20° C.
readout-name: Solubility (g per 100 ml)

A. COc1cc(N=Nc2c(S(=O)(=O)O)cc3ccc(Nc4ccc(C(=O)O)cc4)cc3c2O)c(OC)cc1N=Nc1ccc(C(=O)O)cc1 [Compound 14, reference compound]
B. COc1cc(N=Nc2cccc(C(=O)O)c2)c(NC(C)=O)cc1N=Nc1c(S(=O)(=O)O)cc2ccc(Nc3ccc(C(=O)O)cc3)cc2c1O [Compound 12, reference compound]
### Prompt Determine, for A and B , which has the greater value of Solubility. // respond with label for picked entry
### Response A
(A: 17 g per 100 ml, B: 3.6 g per 100 ml)

====

// Solubility lookup, one value per entry
assay-info: Dye solubility in deionised water
Assay type: physicochemical
test-settings: deionised water, stirred 1 hour at 50° C., cooled to 20° C.

Please review the entries below; each comes with its answer.
                    structure_smiles_string             result
0  COc1cc(N=Nc2ccc3c(S(=O)(=O)O)cc(S(=O)(=O)O)cc3c2)c(C)cc1N=Nc1c(S(=O)(=O)O)cc2ccc(NCCS(=O)(=O)O)cc2c1O  > 20 g per 100 ml
1  Cc1cc(N=Nc2c(S(=O)(=O)O)cc3ccc(NCCS(=O)(=O)O)cc3c2O)c(OCCO)cc1N=Nc1cccc(S(=O)(=O)O)c1  > 20 g per 100 ml

Below: the item to evaluate.
### Prompt Answer with the recorded Solubility of COc1cc(N=Nc2cc(S(=O)(=O)O)c3cccc(S(=O)(=O)O)c3c2)c(C)cc1N=Nc1c(S(=O)(=O)O)cc2ccc(NCCS(=O)(=O)O)cc2c1O only.
### Response > 20 g per 100 ml
